meta.source: patent US20080032921A1

Measured IC50, listed per entry for reference.
TARGET UNDER TEST: HLA-DR DRB1*0301 (human)
EXPERIMENTAL PROTOCOL: competition with 125I-labelled peptide, purified HLA
Quote the value and follow it with the unit of measurement.

Reference set, count: 3
binder="LEGFSAESRKLLLVV (modifications not checked) [Flu.PA.658]" endpoint_value="661 nM"
binder="YIQMCTELKLSDYEG (modifications not checked) [Flu.NP.43]" endpoint_value="368 nM"
binder="SLMLQIGNMISIWVSHS (modifications not checked) [Flu.NA.21]" endpoint_value="441 nM"

Could you now look at the following binder, please?
Recall and state the measured IC50 for EECLINDPWVLLNAS (modifications not checked) [Flu.PA.694] .
618 nM
